Attribute: RP-LC retention time
# Assay Comment: gradient 5% acetonitrile 3 min, to 50% in 2 min, to 85% in 15 min, held 3 min, 100 µL/min
# Test Settings: column: Zorbax Extend-C18 2.1 x 50 mm; eluents: water / acetonitrile, 0.1% formic acid
Report the value in s with no unit label.

- Compound: "Ic1ccc(N2CCN(Cc3c[nH]c4ncccc34)CC2)cc1"
  RP-LC retention time, s: 727

// Input: COc1cc(OC)c(NC(=O)N2CCc3nc(-c4ccccc4)ncc3C2)cc1Cl . Output its RP-LC retention time only.
975

Consider the compound O=C(O)c1ccccc1-c1c2ccc(=O)c(O)c-2oc2c(O)c(O)ccc12 and give its recorded RP-LC retention time.
702

Return value of RP-LC retention time for input CC(C)Oc1cccc(NC(=O)C2CCN(S(C)(=O)=O)c3cc(Cl)ccc3O2)c1 (centres undefined) , no commentary.
998

Supply RP-LC retention time value. Item: O=C(CN1CCN(Cc2ccc(F)cc2)C1=O)NCc1cccc(F)c1
790

State its RP-LC retention time for this compound: COc1ccc(-c2cc3nn(CC(=O)N4CCOCC4)c(=O)n3c(C)n2)cc1
717

For O=C(NCCCN1CCc2ccccc2C1)C1CCCN(S(=O)(=O)N2CCCCCC2)C1 (centres undefined) , write its RP-LC retention time.
682

Identify RP-LC retention time associated with the compound CC(C)CCNC(=O)C1(C)CCc2ccccc2C(=O)N1CCc1c[nH]c2ccccc12 (centres undefined)
950

###

Reported RP-LC retention time values for a set of compounds
# Assay Comment: gradient 5% acetonitrile 3 min, to 50% in 2 min, to 85% in 15 min, held 3 min, 100 µL/min
# Test Settings: column: Zorbax Extend-C18 2.1 x 50 mm; eluents: water / acetonitrile, 0.1% formic acid

Example results:
- Smiles Record: "CC(=O)Nc1ccc(S(=O)(=O)N2CCC3(CC2)Nc2cc(F)ccc2-n2cccc23)cc1"
  Property Name: "RP-LC retention time"
  Endpoint Value: "967 s"
- Smiles Record: "NS(=O)(=O)c1ccc(Nc2ccccc2)c([N+](=O)[O-])c1"
  Property Name: "RP-LC retention time"
  Endpoint Value: "856 s"
- Smiles Record: "Cc1cc2c(cc1NC(=O)c1cccs1)n(C)c(=O)n2C"
  Property Name: "RP-LC retention time"
  Endpoint Value: "668 s"
- Smiles Record: "COc1ccccc1/C=C/C(=O)/C=C/c1ccccc1O"
  Property Name: "RP-LC retention time"
  Endpoint Value: "772 s"
- Smiles Record: "CCCc1ccc(S(=O)(=O)NC2CCN(c3ccc(=O)n(CC4CC4)n3)CC2)cc1"
  Property Name: "RP-LC retention time"
  Endpoint Value: "972 s"

For COc1ccc(OC)c(NC(=O)Cn2cccc(-c3nc(-c4ccc(OC)c(OC)c4)no3)c2=O)c1 , write its RP-LC retention time.
810 s

Check the records and state RP-LC retention time for CCc1cccc2[nH]c3cc([N+](=O)[O-])ccc3c12
1180 s

Please give the documented RP-LC retention time of O=C(O)c1ccc(Nc2c(-c3cccc(Br)c3)nc3cnccn23)cc1
736 s

Please indicate RP-LC retention time recorded for CCCNC(=O)Cc1csc(-n2nc(C)c(Cl)c2C)n1
904 s

Fill in RP-LC retention time for record COc1ccccc1-c1nc2nccc(-c3cc(OC)c(OC)c(OC)c3)n2n1
824 s
